Catalogue of pKi values
target: DDR1 (Homo sapiens); construct: purchased Carna Biosciences; assay: LanthaScreen Europium Kinase Binding assay, DDR1; conditions: 5 nM DDR1, 20 nM Kinase Tracer 178, 1 h at rt; Ki from IC50 by Cheng-Prusoff; read-out: Ki DDR1
Sequence (Q08345 19-913): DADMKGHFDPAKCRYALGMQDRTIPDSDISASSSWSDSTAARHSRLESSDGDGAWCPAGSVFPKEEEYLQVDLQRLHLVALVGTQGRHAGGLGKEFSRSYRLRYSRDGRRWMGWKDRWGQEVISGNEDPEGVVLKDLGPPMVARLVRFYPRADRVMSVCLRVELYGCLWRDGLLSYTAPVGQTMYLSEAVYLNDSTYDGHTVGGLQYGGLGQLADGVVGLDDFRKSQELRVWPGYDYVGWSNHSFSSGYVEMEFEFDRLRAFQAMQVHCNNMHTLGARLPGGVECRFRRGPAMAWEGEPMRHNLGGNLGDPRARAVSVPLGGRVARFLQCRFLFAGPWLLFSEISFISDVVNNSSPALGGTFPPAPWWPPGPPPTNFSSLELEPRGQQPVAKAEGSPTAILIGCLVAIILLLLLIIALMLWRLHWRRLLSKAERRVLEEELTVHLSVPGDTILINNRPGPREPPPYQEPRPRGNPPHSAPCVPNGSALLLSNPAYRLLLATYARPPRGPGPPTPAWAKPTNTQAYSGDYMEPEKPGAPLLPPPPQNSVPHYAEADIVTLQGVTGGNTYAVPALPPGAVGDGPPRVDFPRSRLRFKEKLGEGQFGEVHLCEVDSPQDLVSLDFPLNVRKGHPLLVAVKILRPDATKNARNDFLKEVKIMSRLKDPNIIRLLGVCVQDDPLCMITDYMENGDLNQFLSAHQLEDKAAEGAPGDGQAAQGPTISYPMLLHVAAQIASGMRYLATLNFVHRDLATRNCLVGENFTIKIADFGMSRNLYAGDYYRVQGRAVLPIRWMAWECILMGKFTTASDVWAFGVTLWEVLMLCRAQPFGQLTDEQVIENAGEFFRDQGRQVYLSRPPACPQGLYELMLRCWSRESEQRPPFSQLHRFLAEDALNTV
pKi: −log10 of the molar value.

Find the measured pKi: item Cc1ccc(C(=O)Nc2cc(C(C)(C)C(F)(F)F)on2)cc1[C@@H]1CCN(c2cncnc2)C1 [Example 14] , target or system DDR1 (Homo sapiens).
> 8.30

Find the measured pKi: item COc1ccc(C(=O)Nc2cncc(C(F)(F)F)c2)cc1C1CCN(c2cnn3cccnc23)C1 (single isomer, unassigned) [Example 115] , target or system DDR1 (Homo sapiens).
> 8.30

Find the measured pKi: item COc1ccc(C(=O)Nc2cncc(C(F)(F)F)c2)cc1C1CCN(c2cnn3cccnc23)C1 (stereo not shown) [Example 112] , target or system DDR1 (Homo sapiens).
> 8.30

Find the measured pKi: item Cc1ccc(C(=O)Nc2cncc(C(F)(F)F)c2)cc1[C@@H]1CCN(c2nccn3cncc23)C1 [Example 128] , target or system DDR1 (Homo sapiens).
> 8.30

Find the measured pKi: item Cc1ccc(C(=O)Nc2cc(CN(C)C)nc(C(F)(F)F)c2)cc1[C@@H]1CCN(c2ccnc(C(N)=O)c2)C1 [Example 53] , target or system DDR1 (Homo sapiens).
> 8.30

Find the measured pKi: item COCC(=O)Nc1ccc(OC2CN(c3cc(C(=O)Nc4cncc(C(F)(F)F)c4)ccc3C)C2)cn1 [Example 46] , target or system DDR1 (Homo sapiens).
7.60 to 8.30

Find the measured pKi: item Cc1ccc(C(=O)Nc2cncc(C(F)(F)F)c2)cc1[C@@H]1CCN(c2cccc(C(N)=O)c2)C1 [Example 66] , target or system DDR1 (Homo sapiens).
7.60 to 8.30

---

target: DDR2 (Homo sapiens); construct: purchased Life Technologies; test: LanthaScreen Europium Kinase Binding assay, DDR2; conditions: 5 nM DDR2, 10 nM Kinase Tracer 178, 1 h at rt; Ki from IC50 by Cheng-Prusoff; read-out: Ki DDR2
pKi: −log10 of the molar value.
property.name: pKi

Below: 6 compounds and their reported pKi.
Find the measured pKi: item NC(=O)c1cc(N2CCC(c3cc(C(=O)Nc4cncc(C(F)(F)F)c4)ccc3OC(F)F)C2)ccn1 (single isomer, unassigned) [Example 119] , target or system DDR2 (Homo sapiens).
7.60 to 8.30

Find the measured pKi: item `Cc1ccc(C(=O)Nc2cc(C(C)(C)C)no2)cc1[C@@H]1CCN(c2cncc(C#N)c2)C1` , target or system DDR2 (Homo sapiens).
7.60 to 8.30

Find the measured pKi: item `Cc1ccc(C(=O)Nc2cncc(OC(F)(F)F)c2)cc1[C@@H]1CCN(c2cncnc2)C1` , target or system DDR2 (Homo sapiens).
> 8.30

Find the measured pKi: item `Cc1ccc(C(=O)Nc2cncc(C(F)(F)F)c2)cc1[C@@H]1CCN(c2ncnc3[nH]ncc23)C1` , target or system DDR2 (Homo sapiens).
> 8.30

Find the measured pKi: item `Cc1ccc(C(=O)Nc2cc(OC(F)F)ccn2)cc1[C@@H]1CCN(c2cncc(C(N)=O)n2)C1` , target or system DDR2 (Homo sapiens).
> 8.30

Find the measured pKi: item `Cc1ccc(C(=O)Nc2cc(OC(F)F)ccn2)cc1[C@@H]1CCN(c2cnccc2C#N)C1` , target or system DDR2 (Homo sapiens).
> 8.30

***
Find the measured pKi: item COc1ccc(C(=O)Nc2cncc(C(F)(F)F)c2)cc1C1CCN(c2cnn3cccnc23)C1 (centres unmarked) [Example 112] , target or system DDR2 (Homo sapiens).
7.60 to 8.30

Find the measured pKi: item `CCc1cc(NC(=O)c2ccc(C)c([C@@H]3CCN(c4cnccc4C#N)C3)c2)no1` , target or system DDR2 (Homo sapiens).
> 8.30

Find the measured pKi: item `Cc1ccc(C(=O)Nc2cc(C(C)(C)C(F)(F)F)on2)cc1[C@H]1CCN(c2cncc(-c3cnn(C)c3)c2)C1` , target or system DDR2 (Homo sapiens).
> 8.30

Find the measured pKi: item `Cc1ccc(C(=O)Nc2cc(C(F)F)ccn2)cc1[C@@H]1CCN(c2cncnc2)C1` , target or system DDR2 (Homo sapiens).
> 8.30

Find the measured pKi: item `COc1ncc(N2CC[C@@H](c3cc(C(=O)Nc4cncc(C(F)(F)F)c4)ccc3C)C2)cn1` , target or system DDR2 (Homo sapiens).
7.60 to 8.30

Find the measured pKi: item `Cc1ccc(C(=O)Nc2cncc(C(F)(F)F)c2)cc1[C@@H]1CCN(c2cncc(OC3CCN(C)CC3)c2)C1` , target or system DDR2 (Homo sapiens).
7.60 to 8.30

Find the measured pKi: item NC(=O)c1cc(N2CCC(c3cc(C(=O)Nc4cncc(C(F)(F)F)c4)ccc3OC(F)F)C2)ccn1 (single isomer, unassigned) [Example 118] , target or system DDR2 (Homo sapiens).
7.60 to 8.30

Find the measured pKi: item `CCc1cc(NC(=O)c2ccc(C)c([C@@H]3CCN(c4cnn5ccncc45)C3)c2)no1` , target or system DDR2 (Homo sapiens).
> 8.30

---

molecular target: DDR2 (Homo sapiens); construct: purchased Life Technologies; assay: LanthaScreen Europium Kinase Binding assay, DDR2; conditions: 5 nM DDR2, 10 nM Kinase Tracer 178, 1 h at rt; Ki from IC50 by Cheng-Prusoff; read-out: Ki DDR2
property.name: Ki

Find the measured Ki: item Cc1ccc(C(=O)Nc2cc(C(C)(C)C(F)(F)F)on2)cc1[C@@H]1CCN(c2cncc(C(N)=O)c2)C1 [Example 4] , target or system DDR2 (Homo sapiens).
< 5 nM

***
Find the measured Ki: item Cc1ccc(C(=O)Nc2cc(C(C)(C)C)nn2C)cc1[C@@H]1CCN(c2cncc(C(N)=O)c2)C1 [Example 5] , target or system DDR2 (Homo sapiens).
5 to 25 nM

Find the measured Ki: item Cc1ccc(C(=O)Nc2cncc(C(F)(F)F)c2)cc1[C@@H]1CCN(c2cnn(C)c2C(N)=O)C1 [Example 65] , target or system DDR2 (Homo sapiens).
5 to 25 nM

---

Catalogue of Ki values
Biological target: DDR2 (Homo sapiens, UniProt Q16832)
Construct: purchased Life Technologies
Sequence (Q16832 22-855): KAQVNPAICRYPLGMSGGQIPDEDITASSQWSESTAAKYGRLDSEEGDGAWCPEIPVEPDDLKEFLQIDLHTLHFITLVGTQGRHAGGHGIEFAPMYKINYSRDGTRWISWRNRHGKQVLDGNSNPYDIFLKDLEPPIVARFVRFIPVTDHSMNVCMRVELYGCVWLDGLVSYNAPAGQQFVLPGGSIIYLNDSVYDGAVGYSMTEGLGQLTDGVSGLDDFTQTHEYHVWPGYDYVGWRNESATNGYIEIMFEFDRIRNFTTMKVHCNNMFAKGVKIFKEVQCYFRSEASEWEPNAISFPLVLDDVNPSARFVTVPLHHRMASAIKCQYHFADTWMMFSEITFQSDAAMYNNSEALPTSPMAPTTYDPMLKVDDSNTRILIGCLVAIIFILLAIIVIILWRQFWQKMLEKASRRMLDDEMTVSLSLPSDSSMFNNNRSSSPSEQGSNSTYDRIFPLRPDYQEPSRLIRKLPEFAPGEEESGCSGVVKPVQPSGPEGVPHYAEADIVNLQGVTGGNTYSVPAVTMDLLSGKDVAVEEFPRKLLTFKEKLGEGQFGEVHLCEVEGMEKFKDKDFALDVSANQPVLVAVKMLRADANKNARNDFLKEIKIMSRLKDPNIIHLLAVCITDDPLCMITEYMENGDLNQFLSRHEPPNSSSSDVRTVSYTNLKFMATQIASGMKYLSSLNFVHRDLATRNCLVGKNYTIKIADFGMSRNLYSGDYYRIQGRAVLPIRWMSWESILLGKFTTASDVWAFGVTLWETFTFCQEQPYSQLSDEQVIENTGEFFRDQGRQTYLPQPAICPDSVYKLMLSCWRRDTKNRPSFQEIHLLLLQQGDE
Test: LanthaScreen Europium Kinase Binding assay, DDR2
Conditions: 5 nM DDR2, 10 nM Kinase Tracer 178, 1 h at rt; Ki from IC50 by Cheng-Prusoff; read-out: Ki DDR2

Below: 10 molecules and their reported Ki.
Requested read-out: Ki. Entry: COc1ccc(C(=O)Nc2cncc(C(F)(F)F)c2)cc1C1CCN(c2cnn3cccnc23)C1 (single isomer, unassigned) [Example 115]
5 to 25 nM

Requested read-out: Ki. Entry: CC(=O)Nc1cc(N2CC[C@@H](c3cc(C(=O)Nc4cncc(C(F)(F)F)c4)ccc3C)C2)ccn1 [Example 85]
5 to 25 nM

Requested read-out: Ki. Entry: Cc1ccc(C(=O)Nc2cncc(C(F)(F)F)c2)cc1[C@@H]1CCN(c2cnn3ccncc23)C1 [Example 32]
< 5 nM

Requested read-out: Ki. Entry: Cc1ccc(C(=O)Nc2cc(C(C)(C)C)n(C)n2)cc1[C@@H]1CCN(c2ncnc3ccsc23)C1 [Example 131]
< 5 nM

Requested read-out: Ki. Entry: Cc1ccc(C(=O)Nc2cncc(C(F)(F)F)c2)cc1[C@@H]1CCN(c2cnc3ccc(N4CCN(CC#N)CC4)cn23)C1 [Example 73]
5 to 25 nM

Requested read-out: Ki. Entry: Cc1ccc(C(=O)Nc2cncc(C(F)(F)F)c2)cc1[C@@H]1CCN(c2cnccn2)C1 [Example 33]
< 5 nM

Requested read-out: Ki. Entry: Cc1ccc(C(=O)Nc2cncc(C(F)(F)F)c2)cc1[C@@H]1CCN(c2cnccc2C(=O)NC2COC2)C1 [Example 41]
25 to 100 nM

Requested read-out: Ki. Entry: Cc1ccc(C(=O)Nc2cc(C(C)(C)C(F)(F)F)on2)cc1[C@@H]1CCN(c2cncnc2)C1 [Example 14]
< 5 nM

Requested read-out: Ki. Entry: Cc1ccc(C(=O)Nc2cc(OC(F)(F)F)ccn2)cc1[C@@H]1CCN(c2cncc(C(N)=O)c2)C1 [Example 9]
< 5 nM

Requested read-out: Ki. Entry: Cc1ccc(C(=O)Nc2cncc(C(F)(F)F)c2)cc1C1CN(c2cncnc2)CC1O (single isomer, unassigned) [Example 122]
5 to 25 nM

***
Requested read-out: Ki. Entry: Cc1ccc(C(=O)Nc2cncc(C(F)(F)F)c2)cc1[C@H]1CCN(c2cncc(C(N)=O)c2)C1 [Example 2]
5 to 25 nM

Requested read-out: Ki. Entry: CC(=O)Nc1ncc(N2CC[C@@H](c3cc(C(=O)Nc4cncc(C(F)(F)F)c4)ccc3C)C2)cn1 [Example 130]
5 to 25 nM
